Reported values of glycan array binding signal (z-score) for individual entries
Biological target: Gal(a1-3)Gal(b1-4)GlcNAc(b1-2)Man(a1-3)[Gal(a1-3)Gal(b1-4)GlcNAc(b1-2)Man(a1-6)]Man(b1-4)GlcNAc(b1-4)GlcNAc
Assay: glycan array binding signal (z-score within array); higher = stronger binding
Conditions: glycan notation: IUPAC condensed, linker removed
This excerpt belongs to a sample that is enriched for the strongest signals.

BINDER | glycan array binding signal (z-score)
SP16665A-bot-344-23-344 (Bacteroides ovatus) (protein) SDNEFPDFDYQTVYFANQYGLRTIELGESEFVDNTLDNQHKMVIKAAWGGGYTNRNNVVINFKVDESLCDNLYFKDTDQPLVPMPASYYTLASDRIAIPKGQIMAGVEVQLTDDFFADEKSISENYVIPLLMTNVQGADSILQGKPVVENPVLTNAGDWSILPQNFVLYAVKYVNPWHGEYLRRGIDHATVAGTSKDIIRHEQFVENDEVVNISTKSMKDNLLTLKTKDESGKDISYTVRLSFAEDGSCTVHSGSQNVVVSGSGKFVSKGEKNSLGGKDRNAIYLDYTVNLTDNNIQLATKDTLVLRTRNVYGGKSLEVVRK | 0.709
CGL (Crenomytilus grayanus), H2FH31 (protein) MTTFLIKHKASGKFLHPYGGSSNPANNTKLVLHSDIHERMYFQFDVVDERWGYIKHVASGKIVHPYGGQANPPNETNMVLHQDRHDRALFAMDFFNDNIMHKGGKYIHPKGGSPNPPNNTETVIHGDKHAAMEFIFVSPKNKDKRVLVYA | 5.84
SP15308B-bot-339-22-339 (Bacteroides ovatus) (protein) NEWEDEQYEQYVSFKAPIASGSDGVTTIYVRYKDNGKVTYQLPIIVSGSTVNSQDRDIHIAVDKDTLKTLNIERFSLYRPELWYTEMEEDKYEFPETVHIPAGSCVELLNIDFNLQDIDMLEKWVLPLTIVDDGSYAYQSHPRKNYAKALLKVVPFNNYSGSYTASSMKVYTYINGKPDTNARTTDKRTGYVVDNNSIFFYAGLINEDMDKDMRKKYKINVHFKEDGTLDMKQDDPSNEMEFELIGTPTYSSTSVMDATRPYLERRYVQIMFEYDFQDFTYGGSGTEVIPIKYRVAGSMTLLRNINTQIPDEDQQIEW | 3.88
Gal 1 (Mus musculus), P16045 (protein) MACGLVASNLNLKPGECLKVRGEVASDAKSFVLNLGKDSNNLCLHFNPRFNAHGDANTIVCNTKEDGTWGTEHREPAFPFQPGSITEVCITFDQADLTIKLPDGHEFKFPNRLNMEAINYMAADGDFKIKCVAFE | 4.96
GNL (Galanthus nivalis) (protein) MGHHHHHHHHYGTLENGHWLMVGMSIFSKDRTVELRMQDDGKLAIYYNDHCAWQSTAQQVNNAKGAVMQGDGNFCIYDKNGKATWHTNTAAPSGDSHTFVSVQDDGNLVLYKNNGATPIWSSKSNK | 3.44
AAL (Agrocybe aegerita), Q6WY08 (protein) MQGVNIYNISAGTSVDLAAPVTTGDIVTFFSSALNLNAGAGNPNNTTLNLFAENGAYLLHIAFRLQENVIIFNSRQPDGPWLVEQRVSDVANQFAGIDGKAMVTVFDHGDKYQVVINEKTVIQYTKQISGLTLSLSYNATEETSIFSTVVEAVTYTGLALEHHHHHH | 7.5
XL-35 (Xenopus laevis) (protein) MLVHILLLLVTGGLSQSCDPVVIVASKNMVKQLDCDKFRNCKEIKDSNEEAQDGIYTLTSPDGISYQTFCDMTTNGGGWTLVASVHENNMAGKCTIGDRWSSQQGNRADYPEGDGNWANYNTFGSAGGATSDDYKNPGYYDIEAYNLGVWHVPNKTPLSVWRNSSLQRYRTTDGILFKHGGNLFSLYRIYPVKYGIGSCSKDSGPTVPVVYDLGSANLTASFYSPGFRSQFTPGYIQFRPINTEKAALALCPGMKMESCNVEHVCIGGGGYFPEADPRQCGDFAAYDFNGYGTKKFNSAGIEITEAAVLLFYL | 0.152
LecRKVI.2 (protein) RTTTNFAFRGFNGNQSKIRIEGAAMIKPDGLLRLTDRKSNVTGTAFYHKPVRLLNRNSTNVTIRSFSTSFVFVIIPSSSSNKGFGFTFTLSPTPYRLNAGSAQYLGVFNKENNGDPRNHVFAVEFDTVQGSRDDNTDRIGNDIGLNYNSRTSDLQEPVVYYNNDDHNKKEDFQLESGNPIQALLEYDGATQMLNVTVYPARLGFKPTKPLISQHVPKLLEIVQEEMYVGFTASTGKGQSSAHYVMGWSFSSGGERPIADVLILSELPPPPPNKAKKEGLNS | 3.09
EPL1 (Trichoderma atroviride), A0PCX2 (protein) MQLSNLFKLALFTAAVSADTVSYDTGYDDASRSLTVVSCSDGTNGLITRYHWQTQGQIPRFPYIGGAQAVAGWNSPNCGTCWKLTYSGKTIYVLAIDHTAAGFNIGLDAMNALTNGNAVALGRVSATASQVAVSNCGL | 0.847
UEA-I (Ulex europaeus), P22972 (protein) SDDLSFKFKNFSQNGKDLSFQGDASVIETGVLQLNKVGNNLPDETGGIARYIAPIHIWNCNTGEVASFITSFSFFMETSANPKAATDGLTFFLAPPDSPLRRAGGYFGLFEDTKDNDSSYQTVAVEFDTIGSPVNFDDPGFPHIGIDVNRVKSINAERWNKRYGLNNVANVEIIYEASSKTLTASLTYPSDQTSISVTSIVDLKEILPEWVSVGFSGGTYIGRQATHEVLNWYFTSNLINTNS | -0.163
